# SYSTEM TESTED: GABA-A receptor; anion channel
# TEST PROTOCOL: Binding affinity against benzodiazepine receptor (BzR) in rat cortical membranes determined by competition experiments with radiolabeled [3H]flunitrazepam (Fnz)
MEASURED PARAMETER: Ki

Below, 5 molecules whose answers are already recorded.
[[record]]
molecule = "COc1ccc(-c2ncn3c2c(=O)n(C(C)C)c2cc(F)ccc23)cc1"
measured_parameter = "Ki"
reported_measurement = "0.0815 µM"

[[record]]
molecule = "O=C(N1CCCCC1)N1Cc2c(-c3ccccc3)ncn2-c2ccccc21"
measured_parameter = "Ki"
reported_measurement = "0.00165 µM"

[[record]]
molecule = "Cc1ccc(-c2ncn3c2C(C)(C)N(C(=O)N(C)C)c2ccccc2-3)cc1"
measured_parameter = "Ki"
reported_measurement = "0.334 µM"

[[record]]
molecule = "CCNC(=O)N1Cc2c(-c3ccc(F)cc3)ncn2-c2ccccc21"
measured_parameter = "Ki"
reported_measurement = "0.0486 µM"

[[record]]
molecule = "CC(C)n1c(=O)c2c(-c3ccc(F)cc3)ncn2c2ccc(Cl)cc21"
measured_parameter = "Ki"
reported_measurement = "1.69 µM"


Could you report Ki for every entry in the following list?
1. O=C(c1ccccc1F)N1Cc2c(-c3ccc(F)cc3)ncn2-c2ccccc21
2. CC1CN(C(=O)N2Cc3c(-c4ccc(F)cc4)ncn3-c3cccc(Cl)c32)CC(C)N1 (configuration not stated)
3. CC1CN(C(=O)N2Cc3c(-c4ccc(F)cc4)ncn3-c3ccccc32)CC(C)N1 (configuration not stated)
4. CC(C)n1c(=O)c2c(-c3cccc(F)c3)ncn2c2ccccc21
5. CN(C)C(=O)N1c2ccccc2-n2cnc(-c3ccccc3)c2C1(C)C

Result:
0.0424 µM
0.0334 µM
0.00585 µM
0.48 µM
0.478 µM

Could you report Ki for every entry in the following list?
1. CC(C)n1c(=O)c2c(-c3ccc(C(F)(F)F)cc3)ncn2c2ccccc21
2. COc1ccc(-c2ncn3c2c(=O)n(C(C)C)c2c(Cl)cccc23)cc1
3. CN(C)C(=O)N1Cc2c(-c3ccc(F)cc3)ncn2-c2ccccc21
4. COc1ccc(-c2ncn3c2c(=O)n(C(C)C)c2c(C)cccc23)cc1
5. COc1ccc(-c2ncn3c2CN(C(=O)N2CC(C)N(C)C(C)C2)c2ccccc2-3)cc1 (configuration not stated)
6. CC1CN(C(=O)N2Cc3c(-c4ccc(F)cc4)ncn3-c3ccccc32)CC(C)N1C (configuration not stated)
7. CN(C)C(=O)N1Cc2c(-c3ccccc3)ncn2-c2ccccc21

Result:
1: > 10 µM; 2: 0.0279 µM; 3: 0.00296 µM; 4: 0.0497 µM; 5: 0.00416 µM; 6: 0.0132 µM; 7: 0.00341 µM

Could you report Ki for every entry in the following list?
1. O=C(c1ccc(F)cc1)N1Cc2c(-c3ccc(F)cc3)ncn2-c2ccccc21
2. CC(C)n1c(=O)c2c(-c3cccc(C(F)(F)F)c3)ncn2c2ccccc21
3. O=C(N1CCOCC1)N1Cc2c(-c3ccc(F)cc3)ncn2-c2cccc(Cl)c21
4. COc1ccc(-c2ncn3c2c(=O)n(C(C)C)c2ccccc23)cc1
5. CC(C)n1c(=O)c2c(-c3ccccc3)ncn2c2ccc(F)cc21
6. CC(C)n1c(=O)c2c(-c3ccccc3)ncn2c2ccccc21
7. O=C(N1CCOCC1)N1Cc2c(-c3ccc(F)cc3)ncn2-c2ccccc21

Result:
1: 0.0205 µM; 2: 0.188 µM; 3: 0.00297 µM; 4: 0.0317 µM; 5: 0.0396 µM; 6: 0.0385 µM; 7: 0.00161 µM

Could you report Ki for every entry in the following list?
1. Cc1ccc(-c2ncn3c2C(C)(C)N(C(=O)N2CCCC2)c2ccccc2-3)cc1
2. CC1CN(C(=O)N2Cc3c(-c4ccc(F)cc4)ncn3-c3cccc(Cl)c32)CC(C)N1C (configuration not stated)
3. COc1ccc(-c2ncn3c2CN(C(=O)N2CC(C)NC(C)C2)c2ccccc2-3)cc1 (configuration not stated)
4. CC1(C)c2c(-c3ccc(F)cc3)ncn2-c2ccccc2N1C(=O)N1CCCC1
5. CC(C)n1c(=O)c2c(-c3ccc(F)cc3)ncn2c2cccc(Cl)c21

Result:
["0.035 µM", "0.0474 µM", "0.00139 µM", "0.0126 µM", "0.0146 µM"]

Could you report Ki for every entry in the following list?
1. CC(C)n1c(=O)c2c(-c3ccc(F)cc3)ncn2c2ccc(F)cc21
2. O=C(N1CCOCC1)N1Cc2c(-c3ccc(F)cc3)ncn2-c2ccc(Cl)cc21
3. COC(=O)N1Cc2c(-c3ccc(F)cc3)ncn2-c2ccccc21

Result:
["0.0594 µM", "0.0152 µM", "0.0472 µM"]

Could you report Ki for every entry in the following list?
1. O=C(c1cccc(F)c1)N1Cc2c(-c3ccc(F)cc3)ncn2-c2ccccc21
2. CC1CN(C(=O)N2Cc3c(-c4ccc(F)cc4)ncn3-c3ccc(F)cc32)CC(C)N1 (configuration not stated)
3. NC(=O)N1Cc2c(-c3ccc(F)cc3)ncn2-c2ccccc21
4. CC(C)OC(=O)N1Cc2c(-c3ccc(F)cc3)ncn2-c2ccccc21
5. Cc1ccc(-c2ncn3c2CN(C(=O)N(C)C)c2ccccc2-3)cc1
6. O=C(N1CCCC1)N1Cc2c(-c3ccc(F)cc3)ncn2-c2ccccc21
7. Cc1ccc(-c2ncn3c2CN(C(=O)N2CCCC2)c2ccccc2-3)cc1

Result:
1. 0.00591 µM
2. 0.00249 µM
3. 0.216 µM
4. 0.0508 µM
5. 0.0111 µM
6. 0.00097 µM
7. 0.00154 µM

Could you report Ki for every entry in the following list?
1. COc1cccc(-c2ncn3c2c(=O)n(C(C)C)c2ccccc23)c1
2. CN(C)C(=O)N1c2ccccc2-n2cnc(-c3ccc(F)cc3)c2C1(C)C

Result:
1: 0.207 µM; 2: 0.163 µM

Query: # query: Ki | item Cc1cccc2c1n(C(C)C)c(=O)c1c(-c3ccc(F)cc3)ncn12 | system: GABA-A receptor; anion channel
Result: 0.126 µM
